The measured values listed here are drawn from PubChem BioAssay (NCI).

# Test system: EKVX NSCLC
# procedure text: NCI-60 one-dose screen, 48 h
# condition notes: 10 µM unless noted
The panel holds about 83,000 compounds, 20% with a hit somewhere; the sample as a whole holds those more often. Activity calls are given as the source filed them. How the source made its calls: active means growth percent below 10; inactive means the rest.
Write down the outcome that applies. Available outcomes: true for active, false for inactive

[in] In this assay, the call recorded for `COc1cc2c(=O)n(CCCn3ccnc3)c3c4cc5c(cc4ccc3c2cc1OC)OCO5` was what?
[out] false

[in] In this assay, the call recorded for `O=c1cc(-c2ccc(OCc3ccccc3)cc2)oc2c(I)c(OCc3ccccc3)cc(OCc3ccccc3)c12` was what?
[out] false

Further cases:
[in] In this assay, the call recorded for `N=C(N)c1ccc(-c2ccc(-c3ccc(Cl)cc3Cl)o2)cc1` was what?
[out] false

[in] In this assay, the call recorded for `CCN(CC)S(=O)(=O)c1ccc(O)c(NC(=O)c2[nH]c(C)c(C(C)=O)c2CCc2ccc(Cl)cc2)c1` was what?
[out] false

[in] In this assay, the call recorded for `OCCCCc1nccc2c1[nH]c1ccccc12` was what?
[out] false

[in] In this assay, the call recorded for `c1ccc2c(c1)ncn2-c1nc2ccccc2n2c1nc1ccccc12` was what?
[out] false

[in] In this assay, the call recorded for `CSc1ccc(Cl)c(C(=O)Nc2sccc2C(N)=O)c1` was what?
[out] false

###

# Tested on: HCC-2998 colon
# procedure text: NCI-60 one-dose screen, 48 h (100 = growth as untreated, 0 = no growth, -100 = all killed)
# condition notes: 10 µM unless noted
Compounds without any hit were thinned out: in the full panel of roughly 83,000, 20% have a hit.
recorded metric: growth (%)
Field format: number, assumed %, no unit text.

The examples below pair each entry with its known result.
Record `CC(=O)Nc1ccc(C(=O)/C=C/c2ccccc2)cc1` , field growth: 88.7

Record `CCCCCOC(=O)c1cccc(NC(=O)CN(CC)CC)c1` , field growth: 98.9

Record `N=C(N)c1ccc(-c2ccc(-c3ccc(Cl)cc3Cl)o2)cc1` , field growth: -93.2

Record CN1C[C@@H](c2ccc(Cl)cc2)[C@]2(NC(=S)N(c3ccc(F)c(Cl)c3)C2=O)[C@@]12C(=O)NC1C=CC(Cl)=C[C@H]12 (stereo partly drawn) , field growth: 77.8

Record `CO[C@H]1/C=C/O[C@@]2(C)Oc3c(C)c(O)c4c(c3C2=O)C(=O)C(/C=N/N(c2ccccc2)c2ccccc2)=C(NC(=O)/C(C)=C\C=C\[C@H](C)[C@H](O)[C@@H](C)[C@@H](O)[C@@H](C)[C@H](OC(C)=O)[C@@H]1C)C4=O` , field growth: -70.4

Further cases:
Record `O=[N+]([O-])c1cccc(/C=C/c2ccccn2)c1` , field growth: 62.2

Record CN1C(=O)CCC(N2C(=O)c3cccc(NCCOCCOCCNC(=O)c4cc5c(o4)C(=O)c4ccccc4C5=O)c3C2=O)C1=O (stereo not drawn) , field growth: -62.2

Record `COc1ccc(Nc2ncc(Br)c(NCCCNC(=O)C3CCC3)n2)cc1` , field growth: 42.4

Record CCCCCCN(CCCCCC)CC(O)c1cccc2ccc(Cl)cc12 (stereo not drawn) , field growth: 13.1

Record CCOC(=O)C1C(=O)C=C(c2cnccn2)CC1c1ccc(OC)c(OC)c1 (stereo not drawn) , field growth: 99

Record CO/C(=C1/NC(=O)C(Cc2ccc(O)c(Br)c2)N(C)C(=O)C(C)NC(=O)CCC/C=C(\C)CCC(C)OC1=O)c1ccccc1 (stereo not drawn) , field growth: -36.6

Record C=C(CNCCc1ccc(O)cc1)[C@@H]1CC[C@]2(COC3CCCCO3)CC[C@]3(C)[C@H](CC[C@@H]4[C@@]5(C)CCC(N)C(C)(C)[C@@H]5CC[C@]43C)[C@@H]12 (stereo partly drawn) , field growth: -84.7
